Data provenance is patent US20240317871A1.

Biological target: T1, human HVEM (human, UniProt Q92956 39-202, limits assumed); further: test concentration or dose not given here
T1 sequence (looked up): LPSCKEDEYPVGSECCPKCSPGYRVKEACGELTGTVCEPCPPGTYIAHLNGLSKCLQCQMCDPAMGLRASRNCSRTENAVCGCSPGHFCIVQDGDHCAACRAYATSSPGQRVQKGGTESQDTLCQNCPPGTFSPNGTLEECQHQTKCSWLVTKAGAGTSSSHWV
Assay: ELISA
recorded-metric: ELISA signal
Number only, please.

Record Ab_062 (H5S19-16A18A) (antibody, V domains shown, also called Ab_62) VH: QIQLVQSGPELKKPGETVKISCKASGYTFTNFGVNWVKQAPGKGLKWMGWINTYTGEPTYADDFKGRFAFSLETSASTAYLQINNLKNEDTATYFCVRSYYGNSGYWGQGTTLTVSS VL: QIVLTQSPAIMSTSPGEKVTLTCSASSSVSSSYLYWYQQKPGSSPKLWIYSTSNLASGVPARFSGSGSGTSYSLTISSMEAEDAASYFCHQWSTYPWTFGGGTKLEIK . Reported ELISA signal: 2.95

Record Ab_006 (H5S14-5A5A) (antibody, V domains shown, also called Ab_6) VH: DVQLQESGPGLVKPSQSLSLTCTVTGYSITSDFAWNWIRQFPGNKLEWMGYIVYSGSTSYNPSLKSRISITRDTSKNQFFLQLNSVTAEDTATYFCTRGMDYWGQGTSVTVSS VL: QIVLTQSPAIISASLGEEVTLTCSASSSVSYMHWYQQKSGTSPKLLIYSTSNLASGVPSRFSGSGSGTFYSLTISSVEAEDAADYYCHQWSSYLTFGAGTKLELK . Reported ELISA signal: 3.14

Record Ab_076 (H5S20-26A22A) (antibody, V domains shown, also called Ab_76) VH: QIQLVQSGPELKKPGETVKISCRASGYTFTNYGMNWVKQAPGKGLKWMGWINTYTGEPTYADDFKGRFAFSLETSASSAYLQINNLKNEDMATYFCARSLYYGDNYEAYWGQGTLVTVSA VL: QIVLTQSPAIMSASLGEEITLTCSASSSVSYMHWYQQKSGSSPKLLIYTTSNLASGVPSRFSGSGSGTFYSLTISSVEAEDAADYYCHQWSSYTWTFGGGTKLEIK . Reported ELISA signal: 2.89

Record Ab_005 (H5S14-4A4A) (antibody, V domains shown, also called Ab_5) VH: EVQLQQSGPELVKPGASVKISCKTSGYTFTEYTMHWVKQSHGKSLEWIGGINPYNGGTINNQKFKGKATLTVDMSSSTAYMELRSLTSEDSAVYYCAGSVVDRYWYFDVWGAGTTVTVSS VL: QIVLTQSPAIMSASPGEKVTISCSASSSVSYMYWYQQKPGSSPKPWIYRTSNLASGVPARFSGSGSGTSYSLTISSMEAEDAATYYCQQYHSYPLTFGAGTKLELK . Reported ELISA signal: 2.44

Record Ab_061 (H5S19-13A16B) (antibody, V domains shown, also called Ab_61) VH: QIQLVQSGPELKKPGETVKISCKASGYTFTNFGVNWVKQAPGKGLKWMGWINTYTGEPTYADDFKGRFAFSLETSASTAYLRINNLKNEDTATYFCARSYYANYAYWGQGTTLTVSS VL: QIVLTQSPAIMSASPGEKVTLTCSASSSVDSSYLYWYQQKPGSSPKLWIYGTSNLASGVPARFSGSGSGTSYSLTISSMEAEDAASYFCHQWNSYPWTFGGGTKLEIK . Reported ELISA signal: 2.98

Record Ab_051 (H5S19-4A6A) (antibody, V domains shown, also called Ab_51) VH: QVQLKESGPGLVAPSQSLSITCTVSGFSLTGYGVNWVRQPPGKGLEWLGMIWGDGNTDYNSALKSRLSISKDNSKSQVFLKMNSLQTDDTARYYCARSYGSYWGQGTLVTVSA VL: QIVLTQSPAIMSASPGEKVTMTCSASSSVSYMYWYQQKPGSSPRLLIYDTSNLASGVPVRFSGSGSGTSYSLTISRMEAEDAATYYCQQWSSYPFTFGSGTKLEIK . Reported ELISA signal: 3.18

Record Ab_055 (H5S19-1A1A) (antibody, V domains shown, also called Ab_55) VH: DVQLQESGPGLVKPSQSLSLTCTVTGYSITSDYAWNWIRQFPGNKLEWMGYIAYSGGTSYSPSLKSRISITRDTSKNQFFLQLNSVTTEDTATYYCVYFKYGGAFAYWGQGTLVTVSA VL: NIVLTQSPASLAVSLGQRATISCRASESVDSYGNSLMHWYQQKPGQPPKLLIYLASNLESGVPARFSGSGSRTDFTLTIDPVEADDAATYYCQQNNEDPPTFGGGTKLEI . Reported ELISA signal: 2.95

Record Ab_020 (H5S14-22A20A) (antibody, V domains shown, also called Ab_20) VH: EVQLQQSGPELVKPGASVKMSCKASGYTFTSYVMHWVKQKPGQGLEWIGYINPYNDGTKYNEKFKGKATLTSDKSSSTAYMELSSLTSEDSAVYYCARGIITTVIEPILYAMDYWGQGTSVTVSS VL: NIVLTQSPASLAVSLGQRATISCRASESVDSYGNSFMHWYQQKPGQPPKLLIYLASNLESGVPARFSGSGSRTDFTLTIDPVEADDAATYYCQQNNEDPYTFGGGTKLEIK . Reported ELISA signal: 0.049

Record Ab_032 (H5S15-7A8A) (antibody, V domains shown, also called Ab_32) VH: QIQLVQSGPELKKPGETVKISCKASGYTFTNYGMNWVKQAPGKGLKWVGWINTYTGEPTYAEDFKGRFAFSLETSASTAYLQINNLKNEDMATYFCARSFYGSEAYWGQGTLVTVSA VL: QIVLTQSPAIMSASLGEEITLTCSASSSVSFMHWYQQKSGTSPKLLIYSTSNLASGVPSRFSGSGSGTFYSLTISSVEAEDAADYYCHQWSSYLWTFGGGAKLEIK . Reported ELISA signal: 3.04

Record Ab_053 (H5S19-20A20A) (antibody, V domains shown, also called Ab_53) VH: QVQLKESGPGLVAPSQSLSITCTVSGFSLTSYGVHWVRQPPGKGLEWLGVIWAGGITNYNSALMSRLSISKDNSKSQVFLKMNSLQTDDTAMYYCARDWERDSSGPFVYWGQGTLVTVSA VL: DIQMTQTTSSLSASLGDRVTISCTASQGISNYLNWYQQKPDGTVKLLIYYTSTLHSGVPSRFSGSGSGTDYSLTISNLEPEDIATYYCQQYFKLPWTFGGGTKLEIK . Reported ELISA signal: 2.89
